assay: Calcein cytotoxicity assay; assay type: cell-based; settings: human, lox melanoma cells; 2 hours, calcein AM assay; read-out: 2 Hr Tox LD50
Each record here notes measured CC50 at 2 h.

Please review the following examples before continuing.
[[record]]
molecule = "COc1ccc2c(c1)C1=C(CC3CCC1N3C)C2c1ccccc1 (stereo not drawn)"
result = "> 250 µM"

[[record]]
molecule = "CN1C2CCC1C1C(=C(c3ccccc3C(F)(F)F)c3ccccc31)C2 (stereo not drawn)"
result = "> 250 µM"


[in] Given the molecule CN1C2CCC1C1c3ccccc3C(O)(c3ccc(F)cc3)C1C2 (stereo not drawn) , what is its reported CC50 at 2 h?
[out] > 250 µM

* * *

inhibition at 50 µM values, listed per item
test system: LOX human melanoma cell adhesion to human fibronectin; experiment: LOX melanoma cell adhesion to fibronectin; type: cell-based; details: Homo sapiens, LOX, 50 μM; read-out: % Inhibition at 50 μM
Record the value in %, omitting the unit from your answer.

Reference set (5 entries):
[[record]]
compound = "CN1C2CCC1C1c3ccccc3C(O)(c3ccc(Cl)cc3)C1C2 (stereo not shown) [HH]"
readoutnumber = 36.9

[[record]]
compound = "CN1C2CCC1C1c3ccccc3C(O)(c3ccccc3)C1C2 (stereo not shown) [AAA]"
readoutnumber = 5.8

[[record]]
compound = "CN1C2CCC1C1C(=C(c3ccc(F)cc3)c3cc(F)ccc31)C2 (stereo not shown) [Compound H]"
readoutnumber = 101

[[record]]
compound = "CN1C2CCC1C1=C(C2)C(c2ccccc2)c2cc(O)ccc21 (stereo not shown) [BB]"
readoutnumber = 6.5

[[record]]
compound = "CN1C2CCC1C1c3ccc(Cl)cc3C(O)(c3ccccc3)C1C2 (stereo not shown) [YY]"
readoutnumber = 7.4


[in] Record request: inhibition at 50 µM value, item CN1C2CCC1C1C(=C(c3cccc(F)c3)c3ccccc31)C2 (stereo not shown) [O]
[out] 97.1

[in] And then CN1C2CCC1C1C(=C(c3ccc(F)cc3)c3ccccc31)C2 (stereo not shown) [K] , what is it?
[out] 100

[in] Also, CN1C2CCC1C1C(=C(c3ccccc3)c3cc(F)ccc31)C2 (stereo not shown) [I] please.
[out] 100

[in] Thanks! And CN1C2CCC1C1c3ccccc3C(O)(c3ccc4c(c3)OCO4)C1C2 (stereo not shown) [WW] ?
[out] 11.9

[in] Then COc1ccc(C2(O)c3ccc(Cl)cc3C3C4CCC(CC32)N4C)cc1 (stereo not shown) [ZZ] ?
[out] 7

[in] Please give the result for CSc1ccc(C2(O)c3ccccc3C3C4CCC(CC32)N4C)cc1 (stereo not shown) [KK] too.
[out] 32.8

* * *

tested on: LOX human melanoma cell adhesion to human fibronectin; test: LOX melanoma cell adhesion to fibronectin; type: cell-based; conditions: Homo sapiens, LOX, 10 μM; read-out: % Inhibition at 10 μM
Outcome label depends on inhibition at 10 µM relative to 10%: at/above gives y, below gives n.

Previously resolved entries follow.
[[record]]
molecule = "COc1ccc(C2c3ccccc3C3C2CC2CCC3N2C)cc1 (stereo not drawn)"
measuredon = "LOX human melanoma cell adhesion to human fibronectin"
discretelabel = "n"

[[record]]
molecule = "COc1ccc(C2C3=C(c4ccccc42)C2CCC(C3)N2)cc1 (stereo not drawn)"
measuredon = "LOX human melanoma cell adhesion to human fibronectin"
discretelabel = "y"

[[record]]
molecule = "CN1C2CCC1C1c3ccccc3C(O)(c3cccc(F)c3)C1C2 (stereo not drawn)"
measuredon = "LOX human melanoma cell adhesion to human fibronectin"
discretelabel = "y"

[[record]]
molecule = "COc1ccc(C2(O)c3ccc(Cl)cc3C3C4CCC(CC32)N4C)cc1 (stereo not drawn)"
measuredon = "LOX human melanoma cell adhesion to human fibronectin"
discretelabel = "n"

[[record]]
molecule = "CN1C2CCC1C1C(=C(c3cccc(F)c3)c3ccccc31)C2 (stereo not drawn)"
measuredon = "LOX human melanoma cell adhesion to human fibronectin"
discretelabel = "n"

[[record]]
molecule = "CN1C2CCC1C1C(=C(c3cccc(F)c3)c3cc(F)ccc31)C2 (stereo not drawn)"
measuredon = "LOX human melanoma cell adhesion to human fibronectin"
discretelabel = "y"


[in] Assess whether reported inhibition at 10 µM for CN1C2CCC1C1c3ccccc3C(O)(c3cccc(Cl)c3)C1C2 (stereo not drawn) sits at 10% or higher.
[out] n

[in] Now give it for CN1C2CCC1C1C(=C(c3cccc(C(F)(F)F)c3)c3ccccc31)C2 (stereo not drawn) too.
[out] y

[in] Now try COc1ccc(C2=C3CC4CCC(C3c3ccccc32)N4C)cc1 (stereo not drawn) .
[out] n

[in] Moving on to the next molecule: CN1C2CCC1C1c3ccccc3C(O)(c3cccc(C(F)(F)F)c3)C1C2 (stereo not drawn)
[out] n

[in] How about CN1C2CCC1C1c3ccccc3C(O)(c3ccc(Cl)cc3)C1C2 (stereo not drawn) ?
[out] n

* * *

molecules and their reported inhibition at 50 µM
test system: LOX human melanoma cell adhesion to human fibronectin; experiment: LOX melanoma cell adhesion to fibronectin; assay type: cell-based; conditions: Homo sapiens, LOX, 50 μM; read-out: % Inhibition at 50 μM
Record the value in %, omitting the unit from your answer.

Examples with answers:
[[record]]
molecule = "COc1ccc(C2(O)c3ccccc3C3C4CCC(CC32)N4C)cc1 (centres unmarked)"
measuredon = "LOX human melanoma cell adhesion to human fibronectin"
measuredmetric = "inhibition at 50 µM"
unitsofmeasure = "%"
readoutnumber = 21.9

[[record]]
molecule = "COc1ccc(C2c3ccccc3C3C2CC2CCC3N2C)cc1 (centres unmarked)"
measuredon = "LOX human melanoma cell adhesion to human fibronectin"
measuredmetric = "inhibition at 50 µM"
unitsofmeasure = "%"
readoutnumber = 39.1

[[record]]
molecule = "CN1C2CCC1C1c3ccccc3C(O)(c3ccc(F)cc3)C1C2 (centres unmarked)"
measuredon = "LOX human melanoma cell adhesion to human fibronectin"
measuredmetric = "inhibition at 50 µM"
unitsofmeasure = "%"
readoutnumber = 17.3

[[record]]
molecule = "CN1C2CCC1C1c3ccccc3C(O)(c3cccc(Cl)c3)C1C2 (centres unmarked)"
measuredon = "LOX human melanoma cell adhesion to human fibronectin"
measuredmetric = "inhibition at 50 µM"
unitsofmeasure = "%"
readoutnumber = 21.1


Then this molecule:
[in] Please give the measured inhibition at 50 µM for this molecule: CN1C2CCC1C1=C(C2)C(c2ccc(F)cc2)c2ccccc21 (centres unmarked)
[out] 100
